The origin of these recorded values is paper PMC12133000.

# test-method-notes: Pharmacokinetics of rivaroxaban in rats after avitinib or gefitinib pretreatment
# Type: in vivo, Sprague–Dawley (SD) rats
# condition-summary: male, Sprague-Dawley, rat, plasma, po, 10 mg/kg, rats, rivaroxaban 10 mg/kg oral; gefitinib group (25 mg/kg pretreatment); read-out: Cmax
observed-property: Cmax
Write the numeric value and append its unit.

Query: Reported Cmax for "O=C(NC[C@H]1CN(c2ccc(N3CCOCC3=O)cc2)C(=O)O1)c1ccc(Cl)s1" : what is it?
Response: 8310 ng/mL

====

# test-method-notes: Pharmacokinetics of rivaroxaban in rats after avitinib or gefitinib pretreatment
# Assay type: in vivo, Sprague–Dawley (SD) rats
# condition-summary: male, Sprague-Dawley, rat, plasma, oral, 10 mg/kg, rivaroxaban ng/ml mean, control (rivaroxaban alone) group, mean of rats 13-18, time 2
observed-property: concentration at 2 h (ng/mL)
Could you give me the number in ng/mL? Just the number is fine.

Query: Reported concentration at 2 h for O=C(NC[C@H]1CN(c2ccc(N3CCOCC3=O)cc2)C(=O)O1)c1ccc(Cl)s1 [rivaroxaban, Rivaroxaban] : what is it?
Response: 337
